Origin of measurements: patent US20210347914A1

TEST SYSTEM: T1, Polyhistidine-tagged recombinant human GFAP expressed from E. coli (human, UniProt P14136 1-432)
T1 construct: also called His-tagged GFAP; not shown: polyhistidine tag
T1 sequence (P14136 whole entry): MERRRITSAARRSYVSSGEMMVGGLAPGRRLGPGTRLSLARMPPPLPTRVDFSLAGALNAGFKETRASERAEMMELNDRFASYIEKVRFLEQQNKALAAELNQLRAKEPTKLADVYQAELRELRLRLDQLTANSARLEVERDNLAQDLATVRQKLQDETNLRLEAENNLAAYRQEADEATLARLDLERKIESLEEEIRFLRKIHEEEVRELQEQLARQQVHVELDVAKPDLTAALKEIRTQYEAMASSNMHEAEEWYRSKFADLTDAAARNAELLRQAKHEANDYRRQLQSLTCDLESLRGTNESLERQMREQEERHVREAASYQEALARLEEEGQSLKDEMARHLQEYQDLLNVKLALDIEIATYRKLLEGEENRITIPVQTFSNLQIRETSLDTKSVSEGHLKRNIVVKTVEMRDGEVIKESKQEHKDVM
TEST SUMMARY: BLI (Octet QKe); His-tagged GFAP on anti-Penta-HIS sensor, antibody in solution
TEST READOUT: pKd
Numbers only, as −log10 of the molar value.

What value of pKd has been reported for the following binder? GFAP-19 (antibody, V domains shown, also called mouse anti-GFAP antibody GFAP-19) VH: EVQLVESGGGLVKPGGSPKLSCAASGFAFSSYDMSWVRQTPEKRLEWVAYISSGGGSTYYPDTMKGRFTISRDNAKNTLYLQMSSLKSEDTAMYYCARHYGTYLYYLDYWGQGTTLTVSS VL: DIVLTQSPATLSVTPGDRVSLSCRASQNISDFLHWYQQKSHESPRLLIKYASQSISGIPSRFSGSGSGSDFTLSINSVEPEDVGVYYCQNGHSFPPTFGGGTKLEIK 9.37
